FYI, the data here is from patent US20240043403A1.

Biological target: human recombinant DGK ξ (Homo sapiens (Human))
Sequence (Q13574 whole entry): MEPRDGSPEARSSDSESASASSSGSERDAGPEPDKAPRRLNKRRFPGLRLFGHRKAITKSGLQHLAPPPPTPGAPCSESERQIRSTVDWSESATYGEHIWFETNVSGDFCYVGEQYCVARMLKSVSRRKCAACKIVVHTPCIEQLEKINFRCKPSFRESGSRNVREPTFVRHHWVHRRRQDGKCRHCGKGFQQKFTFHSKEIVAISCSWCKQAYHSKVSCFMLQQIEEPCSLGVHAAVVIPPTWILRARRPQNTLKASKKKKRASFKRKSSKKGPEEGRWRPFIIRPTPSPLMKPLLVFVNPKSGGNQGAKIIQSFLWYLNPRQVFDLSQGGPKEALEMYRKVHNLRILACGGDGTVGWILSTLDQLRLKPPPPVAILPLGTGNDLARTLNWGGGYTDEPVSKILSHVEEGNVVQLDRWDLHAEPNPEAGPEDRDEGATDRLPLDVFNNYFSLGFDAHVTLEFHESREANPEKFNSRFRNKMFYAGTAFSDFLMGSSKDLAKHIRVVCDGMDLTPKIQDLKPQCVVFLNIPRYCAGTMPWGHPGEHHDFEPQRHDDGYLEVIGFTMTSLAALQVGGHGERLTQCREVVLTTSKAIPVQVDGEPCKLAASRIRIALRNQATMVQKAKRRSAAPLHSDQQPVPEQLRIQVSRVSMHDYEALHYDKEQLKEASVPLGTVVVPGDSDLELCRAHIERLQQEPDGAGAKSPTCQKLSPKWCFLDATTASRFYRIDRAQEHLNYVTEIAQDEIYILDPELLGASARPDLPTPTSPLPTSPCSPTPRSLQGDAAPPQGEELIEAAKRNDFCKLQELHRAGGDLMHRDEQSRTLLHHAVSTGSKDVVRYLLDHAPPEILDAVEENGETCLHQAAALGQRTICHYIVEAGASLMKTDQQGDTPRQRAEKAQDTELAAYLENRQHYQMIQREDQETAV
Assay: Evaluation of DGK ξ inhibitory effect (ADP-Glo Kinase Assay)
Conditions: ADP-Glo luminescence
Experimental: Test Example 1. Evaluation of DGK ξ Inhibitory Effect The inhibitory effect of a test compound on human recombinant DGK ξ (Cama Biosciences, Inc., 12-410-20N) was examined by the following method in which detection is performed with ADP-Glo™ Kinase Assay (Promega Corporation). […]
pIC50: −log10 of the molar value.
# reported pIC50; entries follow
measured_metric: pIC50

[
  {
    "compound": "NC[C@@H]1CCCN(c2c(NC(=O)c3ccn(CC(F)F)n3)ccc(Oc3ccccc3)c2C(F)(F)F)C1",
    "system_name": "human recombinant DGK ξ (Homo sapiens (Human))",
    "meas_value": 7.55
  },
  {
    "compound": "CNC[C@H]1CN(c2c(NC(=O)c3ccn(-c4ccnnc4)n3)ccc(C3CCCC3)c2C(F)(F)F)CCN1C [Example 124]",
    "system_name": "human recombinant DGK ξ (Homo sapiens (Human))",
    "meas_value": 8.42
  },
  {
    "compound": "NCCCn1cc(-c2c(NC(=O)c3ccn(-c4ccnnc4)n3)ccc(OC3CCC3)c2C(F)(F)F)cn1",
    "system_name": "human recombinant DGK ξ (Homo sapiens (Human))",
    "meas_value": 7.80
  },
  {
    "compound": "CN(C)CCOc1cc(-c2c(NC(=O)c3coc(-c4ccnnc4)n3)ccc(OC3CCC3)c2C(F)(F)F)ccn1",
    "system_name": "human recombinant DGK ξ (Homo sapiens (Human))",
    "meas_value": 7.68
  },
  {
    "compound": "NC[C@@H]1CCCN(c2c(NC(=O)c3ccn(-c4ccnnc4)n3)ccc(Oc3ccccc3)c2C(F)(F)F)C1",
    "system_name": "human recombinant DGK ξ (Homo sapiens (Human))",
    "meas_value": 7.64
  }
]
